TARGET OF ASSAY: T1, HER2ECDHis (human, UniProt P04626 23-653, biotinylated in the cross-block ELISA (sites not given))
T1 construct: range 1-653; expressed in HEK-293F; also called soluble HER2; biotinylated HER2ECDHis
METHOD SUMMARY: ELISA; competitor 153
Doc: threshold 40% (exclusive). Items with % binding vs no competitor beneath it return MET; others return NOT MET.

Recorded results for 4 binders are shown here.
Is it true that % binding vs no competitor reported for HuMab 098 (antibody, V domains shown, also called TH1014-098; PC1014-098) VH: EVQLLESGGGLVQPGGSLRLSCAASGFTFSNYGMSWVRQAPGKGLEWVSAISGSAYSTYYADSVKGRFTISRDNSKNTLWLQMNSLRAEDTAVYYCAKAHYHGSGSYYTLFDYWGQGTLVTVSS VL: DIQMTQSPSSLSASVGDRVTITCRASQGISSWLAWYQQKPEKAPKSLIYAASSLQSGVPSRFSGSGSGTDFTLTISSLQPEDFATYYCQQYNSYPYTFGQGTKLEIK is less than 40%? NOT MET

Here is the next binder: HuMab 169 (antibody, V domains shown, also called TH1014-169; PC1014-169) VH: QVQLVQSGAEVKKPGASVKVSCKASGYTFTNYGISWVRQAPGQGLEWMGWLSAYSGNTIYAQKLQGRVTMTTDTSTTTAYMELRSLRSDDTAVYYCARDRIVVRPDYFDYWGQGTLVTVSS VL: EIVLTQSPATLSLSPGERATLSCRASQSVSSYLAWYQQKPGQAPRLLIYDASNRATGIPARFSGSGSGTDFTLTISSLEPEDFAVYYCQQRSNWPRTFGQGTKVEIK NOT MET

Here is the next binder: HuMab 091 (antibody, V domains shown, also called TH1014-091; PC1014-091) VH: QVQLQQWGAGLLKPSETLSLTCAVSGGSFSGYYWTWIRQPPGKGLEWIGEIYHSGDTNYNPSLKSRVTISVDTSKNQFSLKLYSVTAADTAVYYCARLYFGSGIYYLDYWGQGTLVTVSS VL: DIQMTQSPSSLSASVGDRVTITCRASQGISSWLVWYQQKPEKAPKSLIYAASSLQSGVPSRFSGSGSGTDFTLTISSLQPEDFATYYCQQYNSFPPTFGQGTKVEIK NOT MET

Here is the next binder: HuMab 127 (antibody, V domains shown) VH: EVQLVQSGAEVKKPGESLTISCKGSGYSFSIYWIGWVRQMPGKGLEWMGIIFPGDSDIRYSPSFQGQVTISADKSISTAYLQWSSLKASDTAMYYCARQPGDWSPRHWYFDLWGRGTLVTVSS VL: VIWMTQSPSLLSASTGDRVTISCRMSQGISSYLAWYQQKPGKAPELLIYAASTLQSGVPSRFSGSGSGTDFTLTISYLQSEDFATYYCQQYYSFPLTFGGGTKVEIK MET

More entries:
Is it true that % binding vs no competitor reported for HuMab 084 (antibody, V domains shown, also called TH1014-084; PC1014-084) VH: QVQLVQSGAEVKKPGSSVKVSCKASGGTFRTYAINWVRQAPGQGLEWMGRINTVLGIVNHAQKFQGRVTITADKSTNTAYMELNSLRSEDTAVYYCAREKGVDYYYGIEVWGQGTTVTVSS VL: DIQMTQSPSSVSASVGDRVTITCRASQGISSWLAWYQHKPGKAPKLLIYVASTLQSGVPSRFSGSGSGTDFTLTISSLQPEDFATYYCQQANSFPLTFGGGTKVEIK is less than 40%? NOT MET

Here is the next binder: HuMab 129 (antibody, V domains shown) VH: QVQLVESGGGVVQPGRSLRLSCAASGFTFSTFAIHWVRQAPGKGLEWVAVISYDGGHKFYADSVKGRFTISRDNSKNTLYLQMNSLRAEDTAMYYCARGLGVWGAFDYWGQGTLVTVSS VL: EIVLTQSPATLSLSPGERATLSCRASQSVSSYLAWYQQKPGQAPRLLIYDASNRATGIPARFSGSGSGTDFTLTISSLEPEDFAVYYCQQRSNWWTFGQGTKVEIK NOT MET

Here is the next binder: HuMab 153 (antibody, V domains shown) VH: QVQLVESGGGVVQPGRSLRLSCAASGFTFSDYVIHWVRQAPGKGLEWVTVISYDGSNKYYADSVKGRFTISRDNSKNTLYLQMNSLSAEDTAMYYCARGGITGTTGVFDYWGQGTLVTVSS VL: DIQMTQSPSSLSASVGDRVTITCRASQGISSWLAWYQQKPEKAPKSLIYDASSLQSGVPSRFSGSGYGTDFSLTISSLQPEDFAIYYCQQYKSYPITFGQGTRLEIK MET

Here is the next binder: HuMab 050 (antibody, V domains shown, also called TH1014-050; PC1014-050) VH: EVQLLESGGGLVQPGGSLRLSCAASGFTFSSYAMNWVRQAPGKGLEWVSAISGRGGTTYYADSVKGRFTISRDNSKNTLYLQMSSLRAEDTAVYYCAKARANWDYFDYWGQGTLVTVSS VL: DIQMTQSPSSVSASVGDRVTITCRASQGISSWLAWYQHKPGKAPKLLIYAASILQSGVPSRFSGSGSGTDFTLTISSLQPEDFATYYCQQANSFPITFGQGTRLEIK NOT MET

Here is the next binder: HuMab 025 (antibody, V domains shown, also called TH1014-025; PC1014-025) VH: QVQLQQWGAGLLKPSETLSLTCAVYGGSFSDYYWNWIRQPPGKGLEWIGEIHHSGSTNYNPSLKSRVTISVDTSKNQFSLKLSSVTAADTAVYYCARGYYDSGVYYFDYWAQGTLVTVSS VL: DIQMTQSPSSLSASVGDRVTITCRASQGISRWLAWYQQKPEKAPKSLIYAASSLRSGVPSRFSGSGSGTDFTLTISSLQPEDFATYYCQQYNSYPITFGQGTRLEIK NOT MET

Origin of values: patent US20170369590A1
